Provenance of the data: ChEMBL document CHEMBL4251743

Tested on: Mus musculus
measurementNotes: Toxicity in iv dosed Swiss-Webster mouse
Format: organism-based
measurementParameters: in vivo
Below, each entry is listed alongside its reported LD50.

Below, each entry is followed by its recorded LD50 result.
[
  {
    "compound": "Clc1ccc(C2CC3CCC2N3)cn1 (racemic) [EPIBATIDINE]",
    "testedTarget": "Mus musculus",
    "LD50": "0.0015 mg/kg"
  },
  {
    "compound": "Clc1ccc2c(n1)O[C@@]13CC[C@@H]1NC[C@@H]23",
    "testedTarget": "Mus musculus",
    "LD50": "> 10 mg/kg"
  },
  {
    "compound": "Clc1ccc2c(n1)O[C@]13CC[C@H]1NC[C@H]23",
    "testedTarget": "Mus musculus",
    "LD50": "0.072 mg/kg"
  }
]

// next entry
Task item: Tell me the measured LD50 of Clc1ccc2c(n1)OC13CCC1NCC23 (racemic) , please.
Reply: 0.27 mg/kg
